Source: PubChem BioAssay (NCI)

# Test system: UACC-257 melanoma
# ASSAY_SUMMARY: NCI tumour cell line growth inhibition, 48 h
Collected TGI values appear next to each entry.
OUTCOME_MEASURE: TGI

CCOP(=O)(OCC)/C(=C/NC(=S)c1ccncc1)C(=O)OC: > 100 µM
N#Cc1c(=O)c2ccccc2n2c1[nH]c1ccccc12: > 100 µM
Nc1ccc2c(=O)cc(-c3cccs3)[nH]c2n1: > 100 µM

###

# Test system: UACC-257 melanoma
# ASSAY_SUMMARY: NCI tumour cell line growth inhibition, 48 h
TGI values, listed per item
OUTCOME_MEASURE: TGI

CC(=Nc1ccccc1)C1=C(O)C(Cc2ccc(O)cc2)NC1=O (centres undefined): > 100 µM
C=C1C(C2(C)C(OC(C)=O)CC(=O)OC(C)(COC(C)=O)C2CC(=O)OC)C(OC=O)C(OC(=O)C(O)C(C)CC)C2(C)C(c3ccoc3)CC(=O)C12O (centres undefined): > 100 µM
COC(=O)c1cc2c3ccccc3n3c(=O)c4cc5ccccc5nc4c(n1)c23: > 100 µM
C=C(NC(=O)C(=C)NC(=O)c1csc(C2=NC3c4csc(n4)C4NC(=O)c5csc(n5)C(C(C)(O)C(C)O)NC(=O)C5CSC(=N5)C(=CC)NC(=O)C(C(C)O)NC(=O)c5csc(n5)C3(CC2)NC(=O)C(C)NC(=O)C(=C)NC(=O)C(C)NC(=O)C(C(C)CC)NC2C=Cc3c(C(C)O)cc(nc3C2O)C(=O)OC4C)n1)C(N)=O (centres undefined): > 100 µM
NC(=O)c1cc2ccc(O)cc2o/c1=N/NC(=O)c1ccccc1: > 100 µM
NC(=O)CCC(Nc1c2ccccc2nc2ccccc12)C(=O)O (centres undefined): > 100 µM
N#CC1C(=O)SC2c3ccccc3C(=O)c3ccccc3C12 (centres undefined): > 10 µM
O=C(O)CCCSc1ccccc1: > 100 µM
O=c1cc(N2CCN(CCCCCOc3cc(O)c4c(=O)cc(-c5ccccc5)oc4c3)CC2)c2ccccc2o1: > 100 µM
C=C(CN1CCN(c2cccc(C(F)(F)F)n2)CC1)c1ccc(C(=O)Nc2ccccc2N)cc1: > 100 µM
COc1cc2cc3c4cc(OC)c(OC)cc4cc[n+]3cc2cc1OC: > 100 µM
CCOc1ccc(N=Cc2ccc3cc(C)ccc3n2)cc1: > 100 µM
Cc1ccc(NC2=C(Cl)C(=O)N(Cc3ccc(Cl)cc3)C2=O)cc1O: 28.7 µM
COc1cc2nc(-c3cccs3)nc(N3CCN(c4ccccc4C(F)(F)F)CC3)c2cc1OC: > 100 µM
O=C1CCCCCCCCCCC1CCCCCBr (centres undefined): 58.5 µM
COC(=O)[C@]12CC[C@H]3CC[C@H]([C@H]31)[C@H](c1ccccc1)N2: 29.6 µM
Nc1nc(N)c2cc(-c3ccccc3)cnc2n1: 30.6 µM
COc1ccc(N2C(=O)[C@H]3[C@H]4CC(C(C)(C)C)CC[C@H]4c4c(n(C)c5ccccc45)[C@H]3C2=O)cc1 (some centres undefined): > 100 µM
CCOC(=O)CCC(NC(=O)c1ccc(Oc2nc3ccccc3nc2-c2ccccc2)cc1)C(=O)OCC (centres undefined): > 100 µM
O=C1c2ccccc2-c2oc(=O)c3ccccc3c21: > 100 µM
O=C1c2ccccc2CN1c1ccc(OCCN2CCCCC2)cc1: > 10 µM
O=S(=O)(c1ccccc1)C(c1ccc2ccccc2n1)S(=O)(=O)c1ccccc1: > 100 µM
CC(=O)[C@@H]1C/C(=C\OCc2ccccc2)O[C@H]1C: > 100 µM
Nc1c2c(c(O)c3c1=C(CO)C=N3)=NCCS2: 0.288 µM
C=CC1CCC[N+]1(CC(=O)OCC)Cc1ccccc1 (centres undefined): > 100 µM
COc1ccc(P2(=S)Oc3ccccc3-c3ccccc3O2)cc1: > 100 µM
CC(=O)NC1=C(NC(C)(C)C)C(=O)c2ccccc2C1=O: 29.4 µM
C=C1C(=O)OC2C1CCC(C)C1C=CC(=O)C12C (centres undefined): 4.61 µM
CCO/C=N\c1c(C#N)c(-c2ccc(Cl)cc2)cn1-c1ccc(C)cc1: > 100 µM
